Reference for the values: patent US20240301319A1

experiment: Log P (n-octanol/water) of perfuming compounds (Tables 4 to 10); details: Table 9, gourmand note
property.measured: Log P (n-octanol/water)
Just the number, please, no unit after it.

These solved cases illustrate the format of a correct answer.
Query: Log P (n-octanol/water); subject: COc1ccc(CCC(C)=O)cc1 2.06

Give the measured Log P (n-octanol/water) of CCCC=C1OC(=O)c2ccccc21 [3-BUTYLIDENE-1-BENZO[C]FURANONE] . 3.12

For the compound CCCCC1CCC(=O)O1 (racemic) [(+−)-4-OCTANOLIDE] , what Log P (n-octanol/water) is on record? 1.80

Alright, here's another compound for you.
Need Log P (n-octanol/water) of CC(=O)C(C)O (racemic) [(+−)-3-HYDROXY-2-BUTANONE] , thanks. −1.03

----------
test: Volatility of perfuming compounds (Tables 4 to 10), with top/middle/bottom note type; assay type: physicochemical; details: Table 8, perfuming compounds having a sweet note; note type by volatility
property.measured: Type

# count of solved cases: 5
Name the reported Type value associated with the compound C=CCOC(=O)CCCCCC [ALLYL HEPTANOATE] Top

Param item = CC(=O)c1ccccc1 ; retrieve measured Type. Top

For the compound CC(C)CCOCCc1ccccc1 , what Type is on record? Top

May I ask what Type has been recorded for CC(=O)C(C)O (racemic) [(+−)-3-HYDROXY-2-BUTANONE] ? Top

For the compound CC/C=C\CCOC(=O)C/C=C\CC [(3Z)-3-hexen-1-yl (3Z)-3-hexenoate] , what Type is on record? Top

More entries:
I'd like to know its Type. The compound in question is CCCC=C1OC(=O)c2ccccc21 [3-BUTYLIDENE-1-BENZO[C]FURANONE] Bottom

May I ask what Type has been recorded for C/C=C/c1ccc(O)c(OC)c1 [2-methoxy-4-[(1E)-1-propen-1-yl]phenol] ? Bottom

What value of Type has been recorded for this entry: CCCCCC1CCCC1O (racemic) [(+−)-2-PENTYL-1-CYCLOPENTANOL] Middle

Request the reported Type associated with C=CCSSCC=C [DIALLYL DISULFIDE] Top

Report Type for CCCCCC(=O)O please. Top

----------
assay: Volatility of perfuming compounds (Tables 4 to 10), with top/middle/bottom note type; assay type: physicochemical; conditions: Table 8, perfuming compounds having a sweet note; note type by volatility
property.measured: Type

These recorded examples may help you get a feel for the data.
Recorded Type of COc1cc(C=O)ccc1OC(=O)C(C)C , please. Bottom

What Type value was documented for this molecule, CC(C)Cc1ccc2ccccc2n1 ? Bottom

Reported Type for CC(C)(C)C(=O)OCCc1ccccc1 [2-PHENYLETHYL PIVALATE] : what is it? Middle

Tell me the measured Type of CC(=O)CCC1=C(C)CCCC1(C)C , please. Middle

Type lookup needed for CCCC(=O)OC(C)(C)Cc1ccccc1 [1,1-DIMETHYL-2-PHENYLETHYL BUTANOATE] , thanks. Bottom

Requested read-out: Type. Entry: CCCCCC1CCCC1=O (racemic) [(+−)-2-pentylcyclopentanone] Top

More entries:
Given COc1cc(C=O)ccc1O [4-hydroxy-3-methoxybenzaldehyde] , state its recorded Type. Bottom

// Type lookup, key: CCOc1cc(C=O)ccc1O [3-ethoxy-4-hydroxybenzaldehyde] Bottom

Fill in the blank: the reported Type of C/C=C(\C)C(=O)OCCCCCC [hexyl (2E)-2-methyl-2-butenoate] is ____. Top

Need Type, item COc1cccc(OC)c1O Bottom

Recorded Type for Cc1occc(=O)c1O [3-HYDROXY-2-METHYL-4(4H)-PYRANONE] , please? Middle

Which Type reading was recorded for the molecule CCCCO ? Top

Fill in: Type of O=C1CCCCCCCCCCC(=O)OCCO1 is ___ Bottom

Entry under review: CCCC1CCC(=O)O1 (racemic) [(+−)-4-HEPTANOLIDE] . Reported Type? Top

Which value of Type has been reported for CCOC(=O)C(=O)C(C)CC (racemic) [(+−)-ETHYL 3-METHYL-2-OXOPENTANOATE] in the records? Top

For the molecule shown here, COc1ccc(CCC(C)=O)cc1 , give the reported Type. Bottom

Value lookup for Type; key = CCCCCCCC1CCCC(=O)O1 (racemic) [(+−)-6-heptyltetrahydro-2H-pyran-2-one] Bottom

Type lookup needed for OCCc1ccccc1 , thanks. Top

What measured Type goes with C=C(C)CC(C)OC(=O)C(C)C (racemic) ? Top

Form field: reported Type of O=Cc1ccccc1 Top

Reported Type, molecule CC1OCCC12NCCS2 (racemic) : ____ Middle

Entry CC(C)C(=O)OCCc1ccccc1 [2-PHENYLETHYL ISOBUTYRATE] has what Type? Middle

----------
assay: Odor threshold and odor value of perfuming compounds (Tables 4 to 10); settings: Table 8, perfuming compounds having a sweet note
property.measured: Odor Value
Keep the answer to the number alone.

Fill blank: measured Odor Value of the molecule C=C1CCCC(C)(C)C1C(=O)/C=C/C (racemic) is ____. 4.10E+04

More entries:
Request the reported Odor Value associated with CCc1occc(=O)c1O [2-ETHYL-3-HYDROXY-4(4H)-PYRANONE] 7.57E+05

Suppose we examine the molecule CCOC(=O)CC1(C)OCCO1 [ETHYL 2-METHYL-1,3-DIOXOLANE-2-ACETATE] ; what Odor Value value has been reported? 2.95E+05

----------
test: Volatility of perfuming compounds (Tables 4 to 10), with top/middle/bottom note type; type: physicochemical; details: Table 7, citrus note; top, middle or bottom note
property.measured: Type

Using the record for (Z)-3,7-DIMETHYL-2,6-OCTADIENAL (A) + (E)-3,7-DIMETHYL-2,6-OCTADIENAL (B) , report its Type. Top

Type lookup needed for 8(9)-METHOXY-TRICYCLO[5.2.1.0(2,6)]DECANE-3(4)-CARBALDEHYDE , thanks. Bottom

Any idea what its Type is? The substance is TRICYCLO[5.2.1.0(2,6)]DEC-3-EN-8-YL PROPANOATE (A) + TRICYCLO[5.2.1.0(2,6)]DEC-4-EN-8-YL PROPANOATE (B) Bottom

----------
assay: Odor threshold and odor value of perfuming compounds (Tables 4 to 10); conditions: Table 7, citrus note; equals volatility divided by odor threshold
Rule for this label: T means Odor Value is less than 2000; F means Odor Value is at least 2000.

Example entries and their recorded answers appear below.
Is 2000 strictly greater than the compound's reported Odor Value? compound: CCCCC/C(C=O)=C\c1ccccc1 [(E)-2-PENTYL-3-PHENYL-2-PROPENAL] T

Problem: For the compound CCCC1CCCC(=O)O1 (racemic) [(+−)-6-propyltetrahydro-2H-pyran-2-one] , is Odor Value under 2000? F

Field: below-cutoff. Rule: recorded Odor Value strictly less than 2000. Subject: C=CCCCCCCCCO F

Continuing:
Please check: Odor Value for CC/C=C\CCOC(=O)c1ccccc1 [(3Z)-3-hexen-1-yl benzoate] , strictly under 2000 or not? T

Report whether reported Odor Value is lower than 2000 (strictly) for O=C(Cc1ccccc1)OCCc1ccccc1 [2-PHENYLETHYL PHENYLACETATE] T

Here's an entry: CCCCCCCCC=O . Is its Odor Value below 2000? F

----------
test: Volatility of perfuming compounds (Tables 4 to 10), with top/middle/bottom note type; assay type: physicochemical; settings: Table 8, perfuming compounds having a sweet note
# binarize Volatility: threshold 60 μg/l air inclusive, high side y, low side n

Here's what some known entries look like.
Is Volatility at least 60 μg/l air? Consider CCCCC1CCCC(=O)O1 (centres unmarked) [5-NONANOLIDE] n

Is it the case that CCOc1cc(C=O)ccc1O [3-ethoxy-4-hydroxybenzaldehyde] has Volatility reaching or exceeding 60 μg/l air? n

Is Volatility at least 60 μg/l air? Consider C=C1CCCC(C)(C)C1C(=O)/C=C/C (racemic) y

Test whether the compound C=CCSSCC=C [DIALLYL DISULFIDE] records Volatility of 60 μg/l air or higher. y

Next:
Is it the case that CCOC(=O)C(=O)C(C)CC (racemic) [(+−)-ETHYL 3-METHYL-2-OXOPENTANOATE] has Volatility reaching or exceeding 60 μg/l air? y

Can CC(C)C(=O)OCCc1ccccc1 [2-PHENYLETHYL ISOBUTYRATE] be said to have Volatility at or above 60 μg/l air? y

Given the entry O=C(Cc1ccccc1)OCCc1ccccc1 [2-PHENYLETHYL PHENYLACETATE] , answer whether its Volatility meets or surpasses 60 μg/l air. n

Please indicate if the recorded Volatility for CC(C)CC(=O)OCc1ccccc1 [BENZYL 3-METHYLBUTANOATE] meets or exceeds 60 μg/l air. y

----------
assay: Odor threshold and odor value of perfuming compounds (Tables 4 to 10); details: Table 9, gourmand note
Classify on Odor Threshold using group A = under 0.0001 μg/l air, group B = from 0.0001 μg/l air up to 0.008 μg/l air, group C = 0.008 μg/l air and over

Reference set, count: 3
// return the class label for CCCCCC1CCC(=O)O1 (racemic) [(+−)-4-NONANOLIDE] group B

Looking at CC(C)CCOCCc1ccccc1 , which class would you pick? group C

The entry to classify is CC(C)C(=O)OCCc1ccccc1 [2-PHENYLETHYL ISOBUTYRATE] ; which class holds it? group B

More entries:
For this compound, which bin applies? CC(C)(C)C(=O)OCCc1ccccc1 [2-PHENYLETHYL PIVALATE] group C

Would you mind sorting C/C=C/C(=O)[C@@H]1[C@@H](C)C=CCC1(C)C (racemic) into the appropriate category? group A

Into which category would you place CCCCC1CCCC(=O)O1 (stereo not shown) [5-NONANOLIDE] ? group A

Exercise: read the entry CCCCO and state which class it falls under. group C

Would you mind sorting CCCCC[C@@H]1OC(=O)C[C@H]1C (racemic) [(+−)-TRANS-3-METHYL-4-NONANOLIDE] into the appropriate category? group B
